Where do the numbers come from? From PubChem BioAssay (NCI).

Tested on: COLO 205 colon
EXPERIMENT SUMMARY: NCI-60 one-dose screen, 48 h (100 = growth as untreated, 0 = no growth, -100 = all killed)
PARTICULARS: 10 µM unless noted
The panel holds about 83,000 compounds, 20% with a hit somewhere; the sample as a whole holds those more often.
We begin with a simple list: items and their reported growth.

# COMPOUND, MEASUREMENT TARGET, growth [%]
records = [
    ("Cc1ccc2c(n1)C(=O)C(Cl)=C(Nc1ccccc1C(C)C)C2=O", "COLO 205 colon", 116),
    ("CN1C(=O)CNC(=O)[C@H](NC(=O)c2nc3ccccc3cc2O)CSSC[C@H]1C(=O)NCCc1nc2ccccc2cc1O", "COLO 205 colon", 1.34),
    ("CCc1ccccc1-n1c(N)c(C#N)c(-c2ccc(Cl)cc2)c(C#N)c1=O", "COLO 205 colon", 126),
    ("Nc1ccccc1-c1cc2c(c3c1[nH]c1ccccc13)CCCCC2", "COLO 205 colon", 101),
    ("CCOC(=O)/C=C1\\S/C(=N\\Nc2ccc([N+](=O)[O-])cc2[N+](=O)[O-])N(Cc2ccccc2)C1=O", "COLO 205 colon", 99.1),
    ("CCC12CCC[N+]3([O-])CCC4(C(=Nc5ccccc54)C(O)(C(=O)OC)C1)C23 (stereo not given)", "COLO 205 colon", 118),
    ("Cc1ccc(C(=O)NN2C(=O)CSC2c2cccc([N+](=O)[O-])c2)cn1 (stereo not given)", "COLO 205 colon", 105),
    ("CCOC(=O)c1cnn2c3ccccc3n(S(=O)(=O)c3ccc(OC)cc3)c12", "COLO 205 colon", -19.4),
    ("O=C1CSC(c2c(Cl)cccc2Cl)N1c1nc(Cl)cc(=O)[nH]1 (stereo not given)", "COLO 205 colon", 111),
    ("COc1ccc(-c2cc3c4c(nc5ccccc5c4c2)CC(c2cc(OC)c(OC)c(OC)c2)O3)cc1 (stereo not given)", "COLO 205 colon", 67.5),
    ("N#CC1=C(N)Oc2c(sc3c(Br)cccc23)C1c1ccc(Br)cc1 (stereo not given)", "COLO 205 colon", -49.5),
    ("CCCCn1c(-c2ccc(C(=O)O/N=C(\\N)c3ccc(OC)cc3)cc2)nc(-c2ccccc2)c1-c1ccccc1", "COLO 205 colon", 0.164),
    ("Cc1ccc(C(=O)NN2C(=O)CSC2c2ccc(Cl)cc2)cn1 (stereo not given)", "COLO 205 colon", 105),
    ("c1ccc2c(-c3nc(-c4c[nH]c5ccncc45)cs3)c[nH]c2c1", "COLO 205 colon", -77.8),
    ("COc1cc(C(=O)N2N=C(c3ccc(S(C)(=O)=O)cc3)CC2c2ccco2)cc(OC)c1OC (stereo not given)", "COLO 205 colon", 69.8),
    ("COc1ccc2cc(C(C)C(=O)Nc3ccc(-c4n[nH]c(=S)n4C4CCCCC4)cc3)ccc2c1 (stereo not given)", "COLO 205 colon", 75.5),
    ("COc1ccc(CN2c3ccccc3Sc3ccccc32)c(F)c1", "COLO 205 colon", 11.7),
    ("c1ccc(-c2nc3sc(-c4ccccc4)cn3n2)cc1", "COLO 205 colon", 94.5),
    ("CN1CCN(c2ccc(-c3cnc4c(-c5csc6ccccc56)cnn4c3)cc2)CC1", "COLO 205 colon", -80.9),
    ("CCOC(=O)Cn1c(=O)c2c(c3ccccc3n2C)n2nnc(-c3ccccc3)c12", "COLO 205 colon", 114),
]

----------
Overview of recorded growth for various compounds
Tested on: K-562 leukemia
EXPERIMENT SUMMARY: NCI-60 one-dose screen, 48 h (100 = growth as untreated, 0 = no growth, -100 = all killed)
PARTICULARS: 10 µM unless noted
The panel holds about 83,000 compounds, 20% with a hit somewhere; the sample as a whole holds those more often.

# COMPOUND, growth, %
measured = [
    ("O=[N+]([O-])c1ccc(Cl)c(-c2cc(CCCCO)on2)c1", 102),
    ("CCCCn1c(=O)c(-c2cc(-c3ccc(Cl)cc3)nc(-c3ccc(Cl)cc3)c2)cc2ccc(Cl)cc21", 97.8),
    ("COc1ccc2c(c1)C(C)Cc1c(ncnc1-n1c(C)nc3ccccc31)N2C (stereo not given)", 11),
    ("Oc1ccc(CCl)c2cccnc12", 43.9),
    ("CCCCCCNC(=O)Oc1ccc(/C(=C(\\C)c2ccc(Cl)cc2)c2ccc(OCCN(CC)CC)cc2)cc1", 2.67),
]

----------
Test system: MDA-MB-231 breast
EXPERIMENT SUMMARY: NCI-60 one-dose screen, 48 h (100 = growth as untreated, 0 = no growth, -100 = all killed)
PARTICULARS: 10 µM unless noted
This is part of a sample that, as a whole, favours compounds with a hit. Of some 83,000 tested, about 20% had one in any assay.
VALUE TYPE: growth (%)

# COMPOUND, VALUE TYPE, UNITS OF MEASURE, VALUE OBSERVED
measured = [
    ("S=C(c1cccs1)N1CCN(c2cccc(Cl)c2)CC1", "growth", "%", 92.5),
    ("O=C(N/N=C/c1ccc(Cl)cc1)c1ccc(C(F)(F)F)nc1Nc1cccc(C(F)(F)F)c1", "growth", "%", 16),
    ("O=C1c2ccccc2NC(n2sc3ccccc3c2=O)N1c1ccccc1 (configuration not stated)", "growth", "%", 90.6),
    ("O=C(Nc1ccc(Cl)cc1F)c1ccccc1O", "growth", "%", 39.1),
    ("CCc1cccc2c3c(sc12)C(c1ccc(F)cc1)C(C#N)=C(N)O3 (configuration not stated)", "growth", "%", 21.1),
    ("[O-][n+]1c2ccccc2[n+]([O-])c2c3ccccc3[nH]c21", "growth", "%", 75.9),
    ("COc1cc(C(=O)c2cnc(-c3cccc4[nH]ccc34)[nH]2)cc(OC)c1OC", "growth", "%", -3.5),
    ("O=C(Nc1ccc(I)cc1F)c1cc(I)ccc1O", "growth", "%", -34.7),
    ("C/C(=C\\C(=O)c1ccc(Cl)cc1)c1ccc(Cl)cc1", "growth", "%", 89.8),
    ("O=C(O)C(c1ccccc1)N1C(=O)CSC1=S (configuration not stated)", "growth", "%", 108),
    ("O=C(Nc1ccc(Br)cc1F)c1cc(Br)ccc1O", "growth", "%", -38.1),
    ("Cc1ccc(C(C)C)cc1C(=O)C[n+]1ccccc1", "growth", "%", 112),
]

----------
growth overview
Test system: MALME-3M melanoma
EXPERIMENT SUMMARY: NCI-60 one-dose screen, 48 h (100 = growth as untreated, 0 = no growth, -100 = all killed)
PARTICULARS: 10 µM unless noted
This is part of a sample that, as a whole, favours compounds with a hit. Of some 83,000 tested, about 20% had one in any assay.

# COMPOUND, growth / %
records = [
    ("CCCCOc1nc2ccc(OC)cc2cc1-c1cc(-c2ccc(Cl)cc2)nc(-c2ccc(Cl)cc2)c1", 100),
    ("COC(=O)/C=C1\\S/C(=N\\Nc2ccc([N+](=O)[O-])cc2[N+](=O)[O-])N(C2CCCCC2)C1=O", 87.5),
    ("CN1C(=O)CNC(=O)[C@H](NC(=O)c2nc3ccccc3cc2O)CSSC[C@H]1C(=O)NCCc1nc2ccccc2cc1O", 110),
    ("Cc1cccc2c3c(sc12)C(c1ccc(Cl)cc1)C(C#N)=C(/N=C/c1ccc(Cl)cc1)O3 (centres undefined)", 56.6),
]

----------
Tested on: RPMI-8226 leukemia
EXPERIMENT SUMMARY: NCI-60 one-dose screen, 48 h (100 = growth as untreated, 0 = no growth, -100 = all killed)
PARTICULARS: 10 µM unless noted
The panel holds about 83,000 compounds, 20% with a hit somewhere; the sample as a whole holds those more often.
Lab note: compare growth with 80%, writing YES if less and NO if equal or more.

# MOLECULE, CLASS
data = [
    ("OC(COc1ccccc1Cl)CN1CCN(c2cccc(Cl)c2)CC1 (centres undefined)", "NO"),
    ("Cc1onc2c(-c3ccccc3)n[nH]c(=O)c12", "NO"),
    ("O=CN1N=C(c2ccc(Nc3ccnc4cc(Cl)ccc34)cc2)CC1c1ccccc1 (centres undefined)", "YES"),
    ("Fc1cc2c(cc1Cl)N(c1ncnc3ccc(-c4cnc5cnccn45)cc13)CC2", "NO"),
    ("COc1ccc(/C=C/c2c(C(=O)/C=C/c3ccc(C(F)(F)F)cc3)c(C)nc3ccccc23)cc1", "YES"),
    ("COc1ccc2cc(C(C)C(=O)Nc3ccc(-c4n[nH]c(=S)n4C4CCCCC4)cc3)ccc2c1 (centres undefined)", "YES"),
    ("COc1ccc(S(=O)(=O)n2cc(C3OC(c4cc(OC)c(OC)c(OC)c4)=NN3C(C)=O)c3ccccc32)cc1OC (centres undefined)", "YES"),
    ("COc1ccc2c(c1)c(-c1nn3cc(-c4cccs4)nc3s1)cn2C", "YES"),
    ("COc1ccc(-c2nc3sc(-c4ccc(Cl)cc4)cn3n2)cc1", "YES"),
    ("Cc1ccc(C(=O)NN2C(=O)CSC2c2ccc(Cl)cc2)cn1 (centres undefined)", "NO"),
    ("CCc1ccccc1-n1c(N)c(C#N)c(-c2ccc(Cl)cc2)c(C#N)c1=O", "NO"),
    ("Cc1nc2ccccc2c(/C=C/c2ccccc2)c1C(=O)/C=C/c1ccc(C(F)(F)F)cc1", "YES"),
    ("O=C(O)CCC(=O)Nc1nnc(-c2ccccc2)s1", "NO"),
    ("C=C1C(=O)O[C@H]2[C@H]1CC/C(COC(=O)CCSSCCC(=O)OC/C1=C/CC[C@@]3(C)O[C@H]3[C@H]3OC(=O)C(=C)[C@@H]3CC1)=C\\CC[C@@]1(C)O[C@@H]21", "YES"),
    ("C=C1C(=O)O[C@H]2[C@H]1CC/C(COC(=O)CCC(=O)NCCOCCOCC(=O)Nc1ccc(OC)c(C(N)=O)c1O)=C\\CC[C@@]1(C)O[C@@H]21", "NO"),
    ("O=C(Oc1cccc2ccccc12)Oc1cccc2ccccc12", "NO"),
    ("C=CCNc1ccc2c3c(cccc13)C(=O)N(N1C(=O)c3cccc4cccc(c34)C1=O)C2=O", "NO"),
    ("OC(COc1ccccc1)CN1CCN(c2ccc(Cl)cc2)CC1 (centres undefined)", "NO"),
]
